Recorded relative viability, one value per entry.
- System: NCI-H647
- PROTOCOL_DETAILS: relative viability (nuclei count vs DMSO), 5 days (fraction); higher = more cells survive
- MEASUREMENT_CONDITIONS: first compound 0.03162 µM
Reply briefly: the number, and no unit.

{"columns": ["COMPOUND", "relative viability"],
 "data": [
  ["NC(=O)Nc1cc(-c2cccc(F)c2)sc1C(=O)N[C@H]1CCCNC1 [AZD7762] + O=C(CCCCCCC(=O)Nc1ccccc1)NO [Vorinostat] (partner 1 µM)", 0.554],
  ["NC(=O)Nc1cc(-c2cccc(F)c2)sc1C(=O)N[C@H]1CCCNC1 [AZD7762] + CC(C)C[C@H](NC(=O)[C@H](Cc1ccccc1)NC(=O)c1cnccn1)B(O)O [Bortezomib] (partner 0.002 µM)", 1.08],
  ["NC(=O)Nc1cc(-c2cccc(F)c2)sc1C(=O)N[C@H]1CCCNC1 [AZD7762] + CS(=O)(=O)N1CCN(Cc2cc3nc(-c4cccc5[nH]ncc45)nc(N4CCOCC4)c3s2)CC1 [Pictilisib] (partner 1 µM)", 0.559]
]}

Would you kindly look at the next entry?
stdin: So what's the measured relative viability for this one? NC(=O)Nc1cc(-c2cccc(F)c2)sc1C(=O)N[C@H]1CCCNC1 [AZD7762] + Nc1nc2[nH]cc(CCc3ccc(C(=O)N[C@@H](CCC(=O)O)C(=O)O)cc3)c2c(=O)[nH]1 [Pemetrexed] (partner 0.2 µM)
stdout: 0.128

====

- Test system: SK-LU-1
- PROTOCOL_DETAILS: relative viability (nuclei count vs DMSO), 5 days (fraction); higher = more cells survive
- MEASUREMENT_CONDITIONS: first compound 0.253 µM
Rule: relative viability below 0.8 gives condition met, anything at or above gives condition not met.

The examples below pair each entry with its known result.
{"columns": ["COMPOUND", "GROUP_LABEL"],
 "data": [
  ["Oc1nc(-c2ccc(C(F)(F)F)cc2)nc2c1CSCC2 [XAV939] + COc1cccc2cc(-c3nc([C@H]4CC[C@H](C(=O)O)CC4)n4ncnc(N)c34)[nH]c12 [OSI-027] (partner 0.5 µM)", "condition met"],
  ["Oc1nc(-c2ccc(C(F)(F)F)cc2)nc2c1CSCC2 [XAV939] + Nc1ncn([C@H]2C[C@H](O)[C@@H](CO)O2)c(=O)n1 [Decitabine] (partner 2 µM)", "condition met"],
  ["C=C1C(=O)O[C@@H](CCCCCCCC)[C@@H]1C(=O)O [C-75] + CS(=O)(=O)CCNCc1ccc(-c2ccc3ncnc(Nc4ccc(OCc5cccc(F)c5)c(Cl)c4)c3c2)o1 [Lapatinib] (partner 2 µM)", "condition not met"]
]}

stdin: Is the reported relative viability for C=C1C(=O)O[C@@H](CCCCCCCC)[C@@H]1C(=O)O [C-75] + O=C(c1cc(Cc2n[nH]c(=O)c3ccccc23)ccc1F)N1CCN(C(=O)C2CC2)CC1 [Olaparib] (partner 8 µM) strictly below 0.8?
stdout: condition met

stdin: Is the reported relative viability for C=C1C(=O)O[C@@H](CCCCCCCC)[C@@H]1C(=O)O [C-75] + CC1(C)CCC(c2ccc(Cl)cc2)=C(CN2CCN(c3ccc(C(=O)NS(=O)(=O)c4ccc(N[C@H](CCN5CCOCC5)CSc5ccccc5)c(S(=O)(=O)C(F)(F)F)c4)cc3)CC2)C1 [Navitoclax] (partner 0.5 µM) strictly below 0.8?
stdout: condition not met
